Quick list: activity change, negative = inhibition per entry.
# assay_protocol: AP1 Signaling Pathway (AID 357);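 also: ME-180 reporter cells stimulated with EGF at its EC50 level; % is scaled to controls: 0 for no effect and ±100 for the full control effect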
# conditions_used: ME-180 (cervical carcinoma) AP-1-bla reporter, EGF-induced, beta-lactamase ratio, 5 h; at 7.69 µM (top of the series) unless noted
Inconclusive results are not listed.

[
  {
    "compound_structure_string": "N#Cc1cccc(-c2nc3cnc(N4CCOCC4)nc3n(Cc3ccc(F)cc3)c2=O)c1",
    "scale_unit": "%",
    "activity change, negative = inhibition": -7.31
  },
  {
    "compound_structure_string": "Cc1cccc(CNc2ccnc(-c3ccccc3CN(C)C)n2)c1",
    "scale_unit": "%",
    "activity change, negative = inhibition": -18
  },
  {
    "compound_structure_string": "CCNc1ncc2nc(-c3ccc(F)cc3)c(=O)n(C[C@H]3CCCO3)c2n1",
    "scale_unit": "%",
    "activity change, negative = inhibition": -0.226
  },
  {
    "compound_structure_string": "O=c1c(-c2cc(F)cc(F)c2)nc2cnc(Oc3ccccc3)nc2n1C[C@H]1CCCO1",
    "scale_unit": "%",
    "activity change, negative = inhibition": -12.8
  },
  {
    "compound_structure_string": "COC(=O)N1CCC2(CCCN(C(=O)Nc3ccccc3)C2)CC1",
    "scale_unit": "%",
    "activity change, negative = inhibition": -8.56
  },
  {
    "compound_structure_string": "Cc1nc2cnc(Nc3ccccc3)nc2n(CCc2ccccc2)c1=O",
    "scale_unit": "%",
    "activity change, negative = inhibition": -7.04
  },
  {
    "compound_structure_string": "COC(=O)N1CCC2(CCCN(c3ncccn3)C2)CC1",
    "scale_unit": "%",
    "activity change, negative = inhibition": -15
  },
  {
    "compound_structure_string": "COCCn1c(=O)c(-c2cccs2)nc2cnc(OC)nc21",
    "scale_unit": "%",
    "activity change, negative = inhibition": 6.04
  },
  {
    "compound_structure_string": "N#Cc1ccccc1-c1ccc2ncnc(NCc3cccs3)c2c1",
    "scale_unit": "%",
    "activity change, negative = inhibition": -0.438
  },
  {
    "compound_structure_string": "COc1ccccc1CN1CC[C@@]2(CCCN(C(=O)c3cc(C(F)(F)F)cc(C(F)(F)F)c3)C2)C1",
    "scale_unit": "%",
    "activity change, negative = inhibition": -0.111
  },
  {
    "compound_structure_string": "COc1cccc(Cn2c(=O)cnc3cnc(OCc4ccccc4)nc32)c1",
    "scale_unit": "%",
    "activity change, negative = inhibition": -24.3
  },
  {
    "compound_structure_string": "O=C(c1ccncc1)N1CCC2(CC1)CN(c1ccccn1)C2",
    "scale_unit": "%",
    "activity change, negative = inhibition": 24.8
  },
  {
    "compound_structure_string": "O=c1c(-c2ccc(F)cc2)nc2cncnc2n1Cc1ccc(F)cc1",
    "scale_unit": "%",
    "activity change, negative = inhibition": -9.76
  },
  {
    "compound_structure_string": "N#Cc1cccc(-c2nccc(NCc3cccs3)n2)c1",
    "scale_unit": "%",
    "activity change, negative = inhibition": -27.8
  },
  {
    "compound_structure_string": "COc1ccc(NC(=O)N2CC[C@@]3(CCCN(C(=O)c4cccc(F)c4)C3)C2)cc1",
    "scale_unit": "%",
    "activity change, negative = inhibition": -11.4
  },
  {
    "compound_structure_string": "COc1cccc(-c2cc(NCc3ccccc3)ncn2)c1",
    "scale_unit": "%",
    "activity change, negative = inhibition": -18.4
  },
  {
    "compound_structure_string": "FC(F)(F)c1ccccc1-c1ccc2ncnc(NCc3cccs3)c2c1",
    "scale_unit": "%",
    "activity change, negative = inhibition": 13.7
  },
  {
    "compound_structure_string": "CC(=O)NCCNc1nc(-c2ccc3c(c2)OCO3)nc2ccccc12",
    "scale_unit": "%",
    "activity change, negative = inhibition": -7.08
  },
  {
    "compound_structure_string": "COc1ccccc1CNc1ccnc(-c2c(C)noc2C)n1",
    "scale_unit": "%",
    "activity change, negative = inhibition": 18
  },
  {
    "compound_structure_string": "CN1CC[C@@]2(CCCN(C(=O)c3cc(C(F)(F)F)cc(C(F)(F)F)c3)C2)C1",
    "scale_unit": "%",
    "activity change, negative = inhibition": -0.328
  },
  {
    "compound_structure_string": "COCC(=O)N1CCC2(CCN(Cc3ccncc3)CC2)CC1",
    "scale_unit": "%",
    "activity change, negative = inhibition": 5.27
  },
  {
    "compound_structure_string": "COc1ccc(-n2c(=O)c(-c3cc(F)cc(F)c3)nc3cncnc32)cc1",
    "scale_unit": "%",
    "activity change, negative = inhibition": -5
  }
]

====

# study_target: Lysosomal acid glucosylceramidase (Homo sapiens) (UniProt P04062)
# Sequence (P04062 whole entry, looked up): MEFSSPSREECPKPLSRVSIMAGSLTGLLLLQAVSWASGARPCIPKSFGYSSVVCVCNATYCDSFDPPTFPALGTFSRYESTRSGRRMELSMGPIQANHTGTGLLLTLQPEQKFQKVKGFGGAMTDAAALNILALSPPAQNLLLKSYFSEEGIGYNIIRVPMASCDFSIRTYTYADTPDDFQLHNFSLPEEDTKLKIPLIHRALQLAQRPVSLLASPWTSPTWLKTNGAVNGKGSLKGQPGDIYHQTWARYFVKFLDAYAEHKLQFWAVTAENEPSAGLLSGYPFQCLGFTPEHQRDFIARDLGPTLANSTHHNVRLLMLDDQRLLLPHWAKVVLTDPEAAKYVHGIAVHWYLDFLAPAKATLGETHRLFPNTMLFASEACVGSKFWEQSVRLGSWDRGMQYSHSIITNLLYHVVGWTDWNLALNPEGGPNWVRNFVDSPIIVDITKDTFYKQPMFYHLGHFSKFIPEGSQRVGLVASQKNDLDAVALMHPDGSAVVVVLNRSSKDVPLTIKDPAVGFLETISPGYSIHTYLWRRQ
# assay_protocol: Glucocerebrosidase-p2 (AID 348); also: potency is read from the fitted curve at half-maximal effect
# conditions_used: purified GBA, blue fluorogenic substrate, 40 min
The source made the active and inactive calls. Cut-off read from the data, not from the text of the source: active = potency below about 10 µM; inactive = the rest.
Possible outcomes: YES for active, NO for inactive

[
  {
    "compound_structure_string": "O=c1c(-c2cc(F)cc(F)c2)nc2cncnc2n1C1CC1",
    "classification": "NO"
  },
  {
    "compound_structure_string": "COc1ccc(C(=O)N2CCC3(CC2)CN(c2ccccn2)C3)cc1",
    "classification": "NO"
  },
  {
    "compound_structure_string": "COCC(=O)N1CCC[C@@]2(CCN(Cc3cc(C(F)(F)F)cc(C(F)(F)F)c3)C2)C1",
    "classification": "NO"
  },
  {
    "compound_structure_string": "CC(C)NC(=O)N1CC[C@@]2(CCCN(S(=O)(=O)c3ccccc3)C2)C1",
    "classification": "NO"
  },
  {
    "compound_structure_string": "O=C(c1csnn1)N1CCC2(CCCN(Cc3ccccc3)C2)CC1",
    "classification": "NO"
  },
  {
    "compound_structure_string": "COCCn1c(=O)c(C)nc2cnc(Nc3ccccc3)nc21",
    "classification": "NO"
  },
  {
    "compound_structure_string": "Cn1c(=O)c(CCc2ccccc2)nc2cnc(Nc3ccccc3)nc21",
    "classification": "NO"
  },
  {
    "compound_structure_string": "O=C(c1csnn1)N1CCC2(CCN(Cc3cc(C(F)(F)F)cc(C(F)(F)F)c3)CC2)CC1",
    "classification": "NO"
  },
  {
    "compound_structure_string": "COCCn1c(=O)c(-c2cn(C)c3ccccc23)nc2cnc(Oc3ccccc3)nc21",
    "classification": "NO"
  },
  {
    "compound_structure_string": "CS(=O)(=O)Nc1cccc(-c2ccc3ncnc(N4CCOCC4)c3c2)c1",
    "classification": "NO"
  },
  {
    "compound_structure_string": "O=S(=O)(c1ccccc1)N1CCC2(CCN(Cc3nccs3)CC2)CC1",
    "classification": "NO"
  },
  {
    "compound_structure_string": "CNc1nc(-c2ccc(N(C)C)cc2)nc2ccccc12",
    "classification": "YES"
  },
  {
    "compound_structure_string": "COc1ncc2ncc(=O)n(C3CC3)c2n1",
    "classification": "NO"
  },
  {
    "compound_structure_string": "CN(C)c1nc(-c2cccnc2)nc2ccccc12",
    "classification": "NO"
  },
  {
    "compound_structure_string": "CC(=O)N1CCC2(CCCN(c3cccc(-c4ccccc4)c3)C2)CC1",
    "classification": "NO"
  },
  {
    "compound_structure_string": "CCNc1ncc2nc(-c3cc(F)cc(F)c3)c(=O)n(Cc3ccc(F)cc3)c2n1",
    "classification": "NO"
  },
  {
    "compound_structure_string": "O=c1c(CCc2ccccc2)nc2cnc(N3CCOCC3)nc2n1CCc1ccccc1",
    "classification": "NO"
  },
  {
    "compound_structure_string": "c1ccc(Nc2ncncc2-c2ccc3c(c2)OCO3)cc1",
    "classification": "NO"
  },
  {
    "compound_structure_string": "Cn1cccc1C(=O)N1CCC2(CCN(Cc3ccc(C#N)cc3)CC2)CC1",
    "classification": "NO"
  },
  {
    "compound_structure_string": "COc1cccc(-c2nccc(NCCc3c[nH]c4ccc(OC)cc34)n2)c1",
    "classification": "YES"
  },
  {
    "compound_structure_string": "COc1ncc2nc(-c3ccc(Cl)cc3)c(=O)n(CCC#N)c2n1",
    "classification": "NO"
  },
  {
    "compound_structure_string": "COC(=O)N1CCC2(CCN(Cc3ccccc3OC)CC2)CC1",
    "classification": "NO"
  },
  {
    "compound_structure_string": "CNc1ncncc1-c1ccccc1C",
    "classification": "NO"
  },
  {
    "compound_structure_string": "COc1ccccc1CN1CCC2(CC1)CCN(C(=O)c1cccn1C)CC2",
    "classification": "NO"
  },
  {
    "compound_structure_string": "COc1ccc(-n2c(=O)c(-c3cn(C)c4ccccc34)nc3cncnc32)cc1",
    "classification": "NO"
  },
  {
    "compound_structure_string": "CN1CCN(c2ncc3nc(-c4ccc(Cl)cc4)c(=O)n(C)c3n2)CC1",
    "classification": "NO"
  },
  {
    "compound_structure_string": "Cc1noc(C)c1-c1nc(NCc2ccccc2)c2ccccc2n1",
    "classification": "NO"
  },
  {
    "compound_structure_string": "O=C(c1cnccn1)N1CCC2(CCCN(c3ccncc3)C2)CC1",
    "classification": "NO"
  },
  {
    "compound_structure_string": "Cc1cccc(CNc2ncncc2-c2ccccc2C(F)(F)F)c1",
    "classification": "NO"
  },
  {
    "compound_structure_string": "O=c1c(-c2ccc(F)cc2)nc2cncnc2n1C1CC1",
    "classification": "NO"
  },
  {
    "compound_structure_string": "COc1ccccc1CN1CCCC2(CCN(C(=O)c3ccncc3)CC2)C1",
    "classification": "NO"
  },
  {
    "compound_structure_string": "N#Cc1cccc(NC(=O)N2CC3(CCN(C(=O)c4ccco4)CC3)C2)c1",
    "classification": "NO"
  },
  {
    "compound_structure_string": "O=C(c1ccco1)N1CCC2(CC1)CCN(c1ccncc1)CC2",
    "classification": "NO"
  },
  {
    "compound_structure_string": "CC(=O)N1CCC2(CCCN(c3ccncc3)C2)CC1",
    "classification": "NO"
  },
  {
    "compound_structure_string": "Cc1nc2cnc(Nc3ccccc3)nc2n(CCc2ccccc2)c1=O",
    "classification": "NO"
  },
  {
    "compound_structure_string": "Cc1cccc(CNc2ccnc(-c3cccc(C#N)c3)n2)c1",
    "classification": "NO"
  },
  {
    "compound_structure_string": "O=C(c1cnccn1)N1CCC[C@@]2(CCN(c3ccccn3)C2)C1",
    "classification": "NO"
  },
  {
    "compound_structure_string": "c1cncc(-c2cc(NCc3cccs3)ncn2)c1",
    "classification": "NO"
  },
  {
    "compound_structure_string": "O=C(c1cc(C(F)(F)F)cc(C(F)(F)F)c1)N1CCC2(CCCN(c3ccncc3)C2)CC1",
    "classification": "NO"
  },
  {
    "compound_structure_string": "COc1cccc(-c2cncnc2Nc2ccccc2)c1",
    "classification": "NO"
  },
  {
    "compound_structure_string": "N#Cc1cccc(-c2nc(Nc3ccccc3)c3ccccc3n2)c1",
    "classification": "NO"
  },
  {
    "compound_structure_string": "COc1ncc2nc(-c3ccc(Cl)cc3)c(=O)n(-c3ccccc3)c2n1",
    "classification": "NO"
  },
  {
    "compound_structure_string": "O=C(c1cccc(F)c1)N1CCC[C@@]2(CCN(C(c3ccccc3)c3ccccc3)C2)C1",
    "classification": "NO"
  },
  {
    "compound_structure_string": "Cc1noc(C)c1-c1nccc(NC2CC2)n1",
    "classification": "NO"
  },
  {
    "compound_structure_string": "CC(=O)NCCNc1ccnc(-c2ccccc2C)n1",
    "classification": "NO"
  },
  {
    "compound_structure_string": "COc1ccccc1CN1CC[C@@]2(CCCN(S(=O)(=O)c3ccccc3)C2)C1",
    "classification": "NO"
  }
]

// provenance: PubChem BioAssay (NCATS)
